The origin of these recorded values is the supplement of paper PMC6555819.

tested on: RARa:RXR (NR concentration 270 nM, RXRa partner concentration 90 nM); experiment: PBM binding z-score (relative to random genomic background probes); higher = stronger binding; sequences stand for … in GC…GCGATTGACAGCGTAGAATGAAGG
propertyMeasured: PBM binding z-score

Item under review: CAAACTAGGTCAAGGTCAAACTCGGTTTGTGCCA . Reported PBM binding z-score?
5.03

Follow-up item: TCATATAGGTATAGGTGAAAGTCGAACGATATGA
0.665

Follow-up item: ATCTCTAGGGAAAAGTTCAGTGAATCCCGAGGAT
0.616

Would you mind doing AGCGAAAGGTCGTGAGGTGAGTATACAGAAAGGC as well?
3.96

Note, next up: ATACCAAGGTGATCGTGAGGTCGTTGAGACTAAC
1.91

Then this sequence: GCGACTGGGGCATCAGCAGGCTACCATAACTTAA
-0.592

Then what about the sequence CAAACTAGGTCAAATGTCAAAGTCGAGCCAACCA ?
4.96

Next up: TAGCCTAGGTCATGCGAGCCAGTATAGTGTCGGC
2.33

Another sequence to check: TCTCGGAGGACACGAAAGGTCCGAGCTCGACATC
0.412

Please give the result for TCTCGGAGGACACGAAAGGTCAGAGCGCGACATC too.
4.73

// same read-out, input: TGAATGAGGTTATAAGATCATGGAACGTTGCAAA
1.96

// same read-out, input: TCTATTAGTTGATGGGCAACCGACGAGTCCGTTT
-0.171

Further, for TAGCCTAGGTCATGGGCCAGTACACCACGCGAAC ?
2.77

Then what about the sequence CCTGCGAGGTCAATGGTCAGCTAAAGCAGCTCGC ?
4.6

Request: CCTCGGAGGACAACAGGAGGTCAGAACTGCCAGA
2.08

Next sequence: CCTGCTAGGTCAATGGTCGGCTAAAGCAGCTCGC
1.47

Please give the result for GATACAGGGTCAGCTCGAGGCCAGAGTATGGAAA too.
3.66

Query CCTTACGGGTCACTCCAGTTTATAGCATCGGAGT next
3.6

Try this sequence next: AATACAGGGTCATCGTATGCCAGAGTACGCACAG
5.23

Moving on to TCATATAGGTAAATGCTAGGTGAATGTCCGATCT
1.02

Can you handle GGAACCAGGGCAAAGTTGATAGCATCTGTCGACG next?
0.798

What do you have for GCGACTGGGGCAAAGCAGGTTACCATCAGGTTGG ?
0.899

Next up: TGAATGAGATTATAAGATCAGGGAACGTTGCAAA
-0.548

// same read-out, input: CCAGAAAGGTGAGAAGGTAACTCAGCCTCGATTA
1.28

Try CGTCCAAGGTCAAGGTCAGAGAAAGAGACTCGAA next.
5.48

Same thing, different sequence: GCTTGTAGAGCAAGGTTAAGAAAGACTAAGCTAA
0.613

What do you get for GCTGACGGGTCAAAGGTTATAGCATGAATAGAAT ?
8.03

Please give the result for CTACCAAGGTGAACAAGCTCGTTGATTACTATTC too.
0.251

Then what about the sequence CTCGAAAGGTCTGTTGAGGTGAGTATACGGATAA ?
1.61

Also need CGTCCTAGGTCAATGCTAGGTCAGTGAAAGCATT , thanks.
4.13

Item: AGAATGAGGTTACCAAAAATCAGGGAAACGCTTG
1.76

Then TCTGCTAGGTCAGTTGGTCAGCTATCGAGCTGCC ?
0.544

Repeat for the following sequence: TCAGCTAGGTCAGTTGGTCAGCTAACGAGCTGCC
0.304

// same read-out, input: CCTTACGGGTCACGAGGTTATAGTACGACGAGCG
6.16

Likewise for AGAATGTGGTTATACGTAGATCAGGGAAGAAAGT ?
0.282

Let us now turn to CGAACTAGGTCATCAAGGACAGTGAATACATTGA
2.13

Same lookup for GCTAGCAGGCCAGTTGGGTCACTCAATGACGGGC , please.
0.497

Check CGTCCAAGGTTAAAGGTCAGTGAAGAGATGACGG too.
7.42

Now this one: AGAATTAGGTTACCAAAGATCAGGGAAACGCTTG
0.336

Same for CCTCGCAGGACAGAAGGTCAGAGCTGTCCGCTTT
1.84

Same lookup for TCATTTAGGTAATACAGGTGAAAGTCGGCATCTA , please.
1.43

And then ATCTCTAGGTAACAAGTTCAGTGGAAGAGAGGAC , what is it?
1.15

# iterate: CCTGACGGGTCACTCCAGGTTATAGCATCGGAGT
3.34

Another: GGTACGAGGGCATTCGAGTTGATAGCATGGCGAT
0.568

Next record, please: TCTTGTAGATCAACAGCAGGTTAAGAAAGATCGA
0.544

# repeat for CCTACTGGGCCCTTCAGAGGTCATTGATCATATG
4.84

# iterate: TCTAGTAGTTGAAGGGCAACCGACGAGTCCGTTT
-0.0241

Now give it for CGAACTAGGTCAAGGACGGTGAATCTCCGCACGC too.
1.5

Another sequence to check: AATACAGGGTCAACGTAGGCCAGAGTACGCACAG
5.45

Now the same for CCTCGGAGGACATAAGGTCAGAGCTGTCCGCTTT
3.08

What about this sequence? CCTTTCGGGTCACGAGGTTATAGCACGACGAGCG
6.44
